tested on: IL6 production in RAW 264.7 macrophage cell line; assay: Mouse IL6 quantification assay (LPS-stimulated macrophages, ELISA); type: cell-based; conditions: RAW264.7, RAW 264.7 murine leukemia virus transformed macrophage cell lines, LPS stimulation, read-out: IL-6 % Inhibition at 30 μM
QUANTITY KIND: inhibition at 30 µM

Solved cases (3 shown):
- O=C(c1csc2c(O)nc(-c3ccccn3)nc12)N1CCC(c2ccccc2)CC1: 76 to 100%
- COc1cc2c(cc1OC)CCN(C(=O)c1csc3c(O)nc(N)nc13)CC2 [drawing 2099]: 1 to 25%
- O=C(Nc1nnc(-c2ccccn2)[nH]1)C1CCCN(c2ncccn2)C1 (stereo not drawn) [drawing 1969]: 0%

Problem: Could you share which inhibition at 30 µM value was measured for Oc1nc(-c2ccccn2)nc2c(-c3ccccc3Cl)csc12 [drawing 2121] ?
Result: 76 to 100%

Problem: Item O=C1CN(c2nc(-c3ccccn3)nc3scc(-c4ccccc4)c23)CCN1CCO [drawing 2131] has what recorded inhibition at 30 µM?
Result: 1 to 25%

---

The following compounds are listed with their measured inhibition at 20 µM values.
biological target: Rac-1 (Homo sapiens (Human), UniProt P63000); assay: Rac inhibition assay (labeled GTP); assay type: binding; conditions: read-out: Rac-1 % Inh.

Observe how each entry below is paired with its result.
* COc1ccncc1CCNC(=O)c1csc2nc(-c3ccccn3)nc(N3CCOCC3)c12 [drawing 3669] | 51 to 75%
* N#Cc1cccc(CCNC(=O)c2csc3nc(-c4ccccn4)nc(N4CCOCC4)c23)c1 [drawing 3676] | 51 to 75%
* CC(C)(O)c1ccc(-c2csc3c(O)nc(-c4ccccn4)nc23)c(F)c1 [drawing 3752] | 76 to 100%
* CC(C)COc1ccc(-c2csc3c(O)nc(-c4nccn4C)nc23)cn1 [drawing 3930] | 51 to 75%
* Cc1sc2c(N)nc(-c3ccccn3)nc2c1Br [drawing 3765] | 25 to 50%
* CC(C)(C(=O)Nc1ccnc(-c2ccccn2)n1)c1ccc(C#N)cc1 [drawing 3640] | 51 to 75%
* COc1ccc(F)cc1-c1csc2c(O)nc(-c3ccccn3)nc12 [drawing 3746] | 51 to 75%
* O=C(c1csc2c(O)nc(-c3ccccn3)nc12)N1CCN(c2ccc(F)cc2)CC1 [drawing 3643] | 51 to 75%
* Cn1ccnc1-c1nc(O)c2c(-c3ccccc3)c(-c3ccccc3)sc2n1 [drawing 3854] | 1 to 25%
* COc1ccc(N2CCN(C(=O)c3csc4c(O)nc(-c5ccccn5)nc34)CC2)c(OC)c1 [drawing 3648] | 76 to 100%

Problem: Value wanted: inhibition at 20 µM (Rac-1 (Homo sapiens (Human), UniProt P63000)) of entry Cn1cnc(-c2nc(O)c3scc(-c4cccc(OC(F)(F)F)c4)c3n2)c1 [drawing 3924]
Result: 25 to 50%

Problem: Recall the recorded inhibition at 20 µM for O=C(c1cc2nc(-c3ccccn3)nc(O)c2s1)N1CCN(c2ccccc2)CC1 [drawing 3713] with Rac-1 (Homo sapiens (Human), UniProt P63000) and state it.
Result: 76 to 100%

Problem: Recall the recorded inhibition at 20 µM for COCCN(C)c1nc(-c2nccn2C)nc2sc(-c3ccccc3)c(-c3ccccc3)c12 [drawing 3884] with Rac-1 (Homo sapiens (Human), UniProt P63000) and state it.
Result: 25 to 50%

Problem: GET /values?readout=inhibition at 20 µM&system=Rac-1 (Homo sapiens (Human), UniProt P63000)&item= O=c1[nH]c(-c2ccccn2)nc2c([C@@H]3O[C@H](CO)[C@@H](O)[C@H]3O)csc12 [drawing 3845]
Result: 51 to 75%

Problem: Observed inhibition at 20 µM on Rac-1 (Homo sapiens (Human), UniProt P63000) for Cc1cnccc1-c1csc2c(O)nc(-c3ccccn3)nc12 [drawing 3760] , please.
Result: 76 to 100%

Problem: Param readout= inhibition at 20 µM; system= Rac-1 (Homo sapiens (Human), UniProt P63000); entry= CNS(=O)(=O)CCCNC(=O)c1csc2nc(-c3ccccn3)nc(N3CCOCC3)c12 [drawing 3680] ; returns value.
Result: 76 to 100%

Problem: Find inhibition at 20 µM (Rac-1 (Homo sapiens (Human), UniProt P63000)) for the entry Oc1nc(-c2ccccn2)nc2c(-c3cncc(C(F)F)c3)csc12 [drawing 3826]
Result: 1 to 25%
